The origin of these recorded values is patent US20230134428A1.

# TESTED TARGET: human NaV1.6 (hNaV1.6) (Homo sapiens, UniProt Q9UQD0)
# Construct: expressed in transfected cells; host or cells: HEK-293 (G418 selection)
# Sequence (Q9UQD0 whole entry): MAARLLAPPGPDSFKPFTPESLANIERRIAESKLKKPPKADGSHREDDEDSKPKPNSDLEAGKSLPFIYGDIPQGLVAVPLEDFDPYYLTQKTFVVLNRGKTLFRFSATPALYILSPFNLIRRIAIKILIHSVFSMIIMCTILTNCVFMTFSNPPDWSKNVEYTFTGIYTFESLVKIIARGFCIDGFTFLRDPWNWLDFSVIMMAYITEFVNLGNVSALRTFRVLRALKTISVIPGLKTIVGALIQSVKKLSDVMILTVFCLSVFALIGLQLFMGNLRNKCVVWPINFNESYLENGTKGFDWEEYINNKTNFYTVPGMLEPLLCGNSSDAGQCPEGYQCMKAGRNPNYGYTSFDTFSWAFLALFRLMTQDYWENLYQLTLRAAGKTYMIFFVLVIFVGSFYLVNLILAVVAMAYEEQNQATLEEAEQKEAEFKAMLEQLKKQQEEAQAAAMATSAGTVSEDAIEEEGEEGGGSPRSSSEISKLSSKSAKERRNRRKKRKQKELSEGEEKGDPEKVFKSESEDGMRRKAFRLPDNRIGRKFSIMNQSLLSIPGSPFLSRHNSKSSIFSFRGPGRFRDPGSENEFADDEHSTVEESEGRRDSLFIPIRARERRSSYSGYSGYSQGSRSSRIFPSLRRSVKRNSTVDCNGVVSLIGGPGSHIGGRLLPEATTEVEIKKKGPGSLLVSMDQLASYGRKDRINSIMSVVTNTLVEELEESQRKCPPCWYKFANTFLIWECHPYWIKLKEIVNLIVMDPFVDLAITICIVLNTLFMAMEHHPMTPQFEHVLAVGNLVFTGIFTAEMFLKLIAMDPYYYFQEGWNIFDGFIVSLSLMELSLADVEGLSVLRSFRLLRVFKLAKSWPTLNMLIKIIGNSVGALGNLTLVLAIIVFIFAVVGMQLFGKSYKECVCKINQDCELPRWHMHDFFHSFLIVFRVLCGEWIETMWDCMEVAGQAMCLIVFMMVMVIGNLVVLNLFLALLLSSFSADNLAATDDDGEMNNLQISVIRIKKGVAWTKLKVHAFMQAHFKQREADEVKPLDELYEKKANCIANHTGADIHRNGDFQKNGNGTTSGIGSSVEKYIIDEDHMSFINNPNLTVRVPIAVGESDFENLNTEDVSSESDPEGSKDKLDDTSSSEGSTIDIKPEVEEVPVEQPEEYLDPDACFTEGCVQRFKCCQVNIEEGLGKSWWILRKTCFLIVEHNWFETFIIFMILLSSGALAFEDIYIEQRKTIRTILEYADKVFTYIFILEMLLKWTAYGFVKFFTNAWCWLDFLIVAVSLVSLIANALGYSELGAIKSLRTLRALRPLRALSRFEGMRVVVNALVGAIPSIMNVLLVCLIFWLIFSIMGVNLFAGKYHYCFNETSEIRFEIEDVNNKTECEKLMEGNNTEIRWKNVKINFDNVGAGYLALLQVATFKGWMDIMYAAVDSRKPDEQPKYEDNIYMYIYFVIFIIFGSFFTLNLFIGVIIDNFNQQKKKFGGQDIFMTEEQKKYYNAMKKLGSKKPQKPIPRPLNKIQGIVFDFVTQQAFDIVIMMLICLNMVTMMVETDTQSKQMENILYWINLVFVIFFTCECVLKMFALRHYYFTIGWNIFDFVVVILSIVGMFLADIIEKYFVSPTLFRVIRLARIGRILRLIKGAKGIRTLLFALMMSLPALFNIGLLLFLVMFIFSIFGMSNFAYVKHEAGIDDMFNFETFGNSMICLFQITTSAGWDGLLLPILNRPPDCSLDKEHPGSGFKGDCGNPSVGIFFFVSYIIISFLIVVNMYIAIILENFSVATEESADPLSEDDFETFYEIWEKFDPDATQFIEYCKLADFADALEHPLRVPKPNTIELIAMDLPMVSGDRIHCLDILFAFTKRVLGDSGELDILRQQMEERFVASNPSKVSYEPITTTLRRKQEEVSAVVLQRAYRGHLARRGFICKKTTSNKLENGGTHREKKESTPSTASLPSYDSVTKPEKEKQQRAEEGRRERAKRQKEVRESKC
# TEST DESCRIPTION: Modulation of late sodium current (INaL), PatchXpress electrophysiology
# Assay type: cell-based
# CONDITIONS: HEK293, read-out: INaL v1.6 (1 µM, % Inhibition)
READOUT NAME: inhibition at 1 µM

Please go through the list and note inhibition at 1 µM for each molecule.
1. FC(F)(F)c1ccc(-c2cnc3cnc(C(F)(F)F)n3c2)cc1 [Compound 18]
2. N#Cc1nc(C(F)F)n2cc(-c3ccc(OC(F)(F)F)cc3)ccc12 [Compound 21]
3. FC1(F)CC(c2ncc3ncc(-c4ccc(OC(F)(F)F)cc4)cn23)C1 [Compound 24]
4. N#Cc1nc(C(F)(F)F)n2cc(-c3ccc(C4(C#N)CC4)cc3)ccc12 [Compound 20]
5. COCc1cc(OC(F)(F)F)ccc1-c1cnc2cnc(C(F)(F)F)n2c1 [Compound 12]
6. Fc1cc(-c2cn3c(C(F)(F)F)ncc3cn2)cnc1OCC(F)(F)F [Compound 23]
7. N#Cc1nc(C(F)(F)F)n2cc(-c3ccc(OCC(F)(F)F)nc3)ccc12 [Compound 19]

## Result
["< 30%", "30 to 70%", "< 30%", "< 30%", "30 to 70%", "30 to 70%", "> 70%"]

* * *

I'd appreciate it if you could supply inhibition at 1 µM values for the items below.
# TESTED TARGET: human NaV1.6 (hNaV1.6) (Homo sapiens, UniProt Q9UQD0)
# Construct: expressed in transfected cells; host or cells: HEK-293 (G418 selection)
# TEST DESCRIPTION: Modulation of late sodium current (INaL), PatchXpress electrophysiology
# Assay type: cell-based
# CONDITIONS: HEK293; 1 µM compound; HEK-293 cells expressing hNaV1.6; late current evoked by 300 nM ATX-II; read-out: INaL v1.6 (1 µM, % Inhibition)

Past entries and their recorded results:
## Task Suppose we examine the compound COCc1cc(OC(F)(F)F)ccc1-c1ccc2c(C#N)nc(C(F)(F)F)n2c1 [Compound 16] ; what inhibition at 1 µM value has been reported?
## Result > 70%

## Task How about COC(C)(C)c1ccc(-c2ccc3cnc(C(F)(F)F)n3c2)cc1 [Compound 3] ?
## Result 30 to 70%

## Task Same again, this time with FC(F)(F)COc1ccc(-c2ccc3cnc(C(F)(F)F)n3c2)cn1 [Compound 2]
## Result 30 to 70%

## Task Now give it for N#Cc1nc(C2CC2(F)F)n2cc(-c3ccc(OC(F)(F)F)cc3)ccc12 (stereo not drawn) [Compound 30] too.
## Result > 70%

## Task Field entry: N#CC1(c2ccc(-c3ccc4cnc(C(F)(F)F)n4c3)cc2)CC1 [Compound 4]
## Result 30 to 70%

Give inhibition at 1 µM for each listed item.
1. N#Cc1nc(C(F)(F)F)n2cc(-c3cnc(OCC(F)(F)F)c(F)c3)ncc12 [Compound 31]
2. FC(F)(F)Oc1ccc(-c2cn3c(C(F)(F)F)ncc3cn2)cc1 [Compound 7]
3. N#CC1(c2ccc(-c3cn4c(C(F)(F)F)ncc4cn3)cc2)CC1 [Compound 22]
4. FC(F)(F)Oc1ccc(-c2cnc3cnc(C(F)(F)F)n3c2)cc1 [Compound 8]
5. FC(F)(F)Oc1ccc(-c2ccc3cnc(C4CC4(F)F)n3c2)cc1 (stereo not drawn) [Compound 26]

## Result
1: 30 to 70%; 2: 30 to 70%; 3: 30 to 70%; 4: 30 to 70%; 5: 30 to 70%

Working through the 8 compounds below one at a time, give inhibition at 1 µM for each.
1. COCc1cc(OC(F)(F)F)ccc1-c1cn2c(C(F)(F)F)ncc2cn1 [Compound 15]
2. FC(F)(F)Oc1ccc(-c2ccc3cnc(C(F)(F)F)n3n2)cc1 [Compound 9]
3. N#Cc1nc(C(F)(F)F)n2cc(-c3ccc(OC(F)(F)F)cc3)cnc12 [Compound 11]
4. N#Cc1nc(C(F)(F)F)n2cc(-c3ccc(OC(F)(F)F)cc3)ncc12 [Compound 27]
5. Fc1cc(-c2cnc3cnc(C(F)(F)F)n3c2)cnc1OCC(F)(F)F [Compound 32]
6. Cc1nc(C(F)(F)F)n2cc(-c3ccc(OC(F)(F)F)cc3)cnc12 [Compound 14]
7. N#CC1(c2ccc(-c3cnc4cnc(C(F)(F)F)n4c3)cc2)CC1 [Compound 13]
8. N#Cc1nc(C(F)(F)F)n2cc(-c3ccc(C(F)(F)F)cc3)ncc12 [Compound 29]

## Result
["> 70%", "30 to 70%", "< 30%", "> 70%", "30 to 70%", "30 to 70%", "< 30%", "> 70%"]

* * *

# TESTED TARGET: human NaV1.6 (hNaV1.6) (Homo sapiens)
# Construct: expressed in transfected cells; host or cells: HEK-293 (G418 selection)
# TEST DESCRIPTION: Modulation of late sodium current (INaL), PatchXpress electrophysiology
# Assay type: cell-based
# CONDITIONS: HEK293; 1 µM compound; HEK-293 cells expressing hNaV1.6; late current evoked by 300 nM ATX-II; read-out: INaL v1.6 (1 µM, % Inhibition)
Consider the following compounds; for each one, report its inhibition at 1 µM.

## Task Find the recorded inhibition at 1 µM belonging to `COc1cc(OC(F)(F)F)ccc1-c1ccc2cnc(C(F)(F)F)n2c1` and report it.
## Result > 70%

## Task Please give the result for `N#Cc1nc(C(F)(F)F)n2nc(-c3ccc(OC(F)(F)F)cc3)ccc12` too.
## Result < 30%

## Task Next: `N#Cc1nc(C(F)(F)F)n2cc(-c3cnc(OCC(F)(F)F)c(F)c3)ccc12`
## Result > 70%

Hi team, please reply with inhibition at 1 µM for each item in this list.
1. FC(F)c1ncc2ncc(-c3ccc(OC(F)(F)F)cc3)cn12
2. COCc1cc(OC(F)(F)F)ccc1-c1cn2c(C(F)(F)F)nc(C#N)c2cn1
3. COc1cc(C2(C#N)CC2)ccc1-c1cnc2cnc(C(F)(F)F)n2c1

## Result
1: < 30%; 2: > 70%; 3: < 30%
